src = patent US6355799B1

- Tested on: redroot pigweed (Amaranthus retroflexus, AMARE)
- Procedure Details: Post-emerge test, greenhouse herbicide activity screening
- Type: in vivo
- Study Conditions: post-emerge, 250 g ai/ha, 14 days after application, rating scale 0-100
Recorded phytotoxicity rating AMARE by entry
Simply state the number, no unit and no words.

Prompt: Please give the measured phytotoxicity rating AMARE for this compound: Cn1c(C(F)(F)F)cc(=O)n(-c2ccc(Cl)cc2NC(=O)Oc2ccccc2)c1=O [4-50]
Completion: 70

Prompt: Please give the measured phytotoxicity rating AMARE for this compound: Cn1c(C(F)(F)F)cc(=O)n(-c2ccc(Cl)cc2NC(=O)OCc2ccccc2F)c1=O [4-49]
Completion: 100

* * *

- Test system: ivyleaf morningglory (Ipomoea hederacea, IPOHE)
- Procedure Details: Pre-emerge test, greenhouse herbicide activity screening
- Type: in vivo
- Study Conditions: Ipomoea, pre-emergence, 336 h; pre-emerge, rate 63 g ai/ha, phytotoxicity rating 0-100 at 14 days after application; read-out: Pre-emerge Herbicidal Activity IPOHE
Measurement Name: pest or weed control at 63 g/ha (%)
Respond with the bare value in %.

Guide cases for pest or weed control at 63 g/ha, answers given:
> print(dat)
                              line.notation                 measurement.name  unit.label  recorded.value
1  COc1c(Cl)cc(F)c(-c2nn(C)c(C(F)(F)F)c2Cl)c1NC(=O)c1ccc2ccccc2c1  pest or weed control at 63 g/ha           %              30
2  COc1c(Cl)cc(F)c(-c2nn(C)c(C(F)(F)F)c2Cl)c1N  pest or weed control at 63 g/ha           %              60
3  COc1c(Cl)cc(Cl)c(-n2nc(C)n(C(F)F)c2=O)c1NC(=O)c1ccc2ccccc2c1  pest or weed control at 63 g/ha           %               0
4  Nc1c(O)c(Cl)cc(F)c1N1C(=O)C2=C(CCCC2)C1=O  pest or weed control at 63 g/ha           %               0

We next turn to a different compound, shown below.
Prompt: What measured pest or weed control at 63 g/ha is associated with Cc1nn(-c2c(F)cc(Cl)cc2NC(=O)c2ccc3ccccc3c2)c(=O)n1C(F)F on ivyleaf morningglory (Ipomoea hederacea, IPOHE)?
Completion: 0

* * *

- Tested on: field corn (Zea mays L., var. Dekalb 535, CORN)
- Procedure Details: Pre-emerge test, crop safety
- Assay type: in vivo
- Study Conditions: crop damage, pre-emerge, rate 250 g ai/ha, phytotoxicity rating 0-100 at 14 days after application
Note to self: Pre-emerge Herbicidal Activity CORN under 20 means True, ties and anything higher get False.

> print(dat)
                              line.notation  answer.label
1  Cc1ccc(COC(=O)Nc2c(C)c(Cl)cc(F)c2-n2c(=O)cc(C(F)(F)F)n(C)c2=O)cc1         False
2  Cc1nn(-c2c(F)cc(Cl)cc2NC(=O)c2ccc(F)cc2F)c(=O)n1C(F)F          True
3  Cc1c(Cl)cc(F)c(-n2c(=O)cc(C(F)(F)F)n(C)c2=O)c1NC(=O)SCc1ccccc1         False

Prompt: Is Pre-emerge Herbicidal Activity CORN strictly under 20 for the entry COc1cccc(COC(=O)Nc2c(C)c(Cl)cc(F)c2-n2c(=O)cc(C(F)(F)F)n(C)c2=O)c1 ?
Completion: False

Prompt: Is Pre-emerge Herbicidal Activity CORN strictly under 20 for the entry COc1c(Cl)cc(F)c(-n2nc(C)n(C(F)F)c2=O)c1NC(=O)c1ccc(F)cc1F ?
Completion: False

Prompt: Is Pre-emerge Herbicidal Activity CORN strictly under 20 for the entry Cc1c(Cl)cc(F)c(-n2c(=O)cc(C(F)(F)F)n(C)c2=O)c1NC(=O)OCc1cccc([N+](=O)[O-])c1 ?
Completion: True

Prompt: Is Pre-emerge Herbicidal Activity CORN strictly under 20 for the entry COc1c(Cl)cc(F)c(N2C(=O)C3=C(CCCC3)C2=O)c1NC(=O)C=Cc1ccccc1 ?
Completion: True

Prompt: Is Pre-emerge Herbicidal Activity CORN strictly under 20 for the entry O=C(Nc1cc(Cl)ccc1-n1c(=O)n2n(c1=O)CCCC2)c1ccc2ccccc2c1 ?
Completion: True
